These measurements were taken from patent US11155561B2.

Target: Btk (Homo sapiens, UniProt Q06187)
Sequence (Q06187 whole entry): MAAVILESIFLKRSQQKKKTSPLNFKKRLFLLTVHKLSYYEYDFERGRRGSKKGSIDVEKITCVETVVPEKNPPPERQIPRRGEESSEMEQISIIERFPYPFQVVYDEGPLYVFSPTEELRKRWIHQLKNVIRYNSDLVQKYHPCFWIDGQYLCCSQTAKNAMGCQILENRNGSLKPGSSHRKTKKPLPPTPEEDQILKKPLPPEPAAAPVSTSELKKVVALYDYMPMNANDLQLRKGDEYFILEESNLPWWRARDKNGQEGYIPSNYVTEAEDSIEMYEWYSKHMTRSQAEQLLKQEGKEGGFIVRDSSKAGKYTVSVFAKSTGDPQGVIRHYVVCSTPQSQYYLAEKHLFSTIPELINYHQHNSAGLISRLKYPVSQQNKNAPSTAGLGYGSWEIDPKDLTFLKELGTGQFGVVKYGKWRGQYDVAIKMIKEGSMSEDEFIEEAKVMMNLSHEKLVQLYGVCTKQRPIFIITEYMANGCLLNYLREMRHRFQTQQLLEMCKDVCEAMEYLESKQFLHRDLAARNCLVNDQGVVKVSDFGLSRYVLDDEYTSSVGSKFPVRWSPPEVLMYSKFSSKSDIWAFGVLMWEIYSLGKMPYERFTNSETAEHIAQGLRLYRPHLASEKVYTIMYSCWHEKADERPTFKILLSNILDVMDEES
Assay: Btk protein degradation activity by Western blot in RPMI8226 cells
Assay type: cell-based
Set-up: degradation activity of the compound (10 μM) on Btk protein in RPMI8226 cells; endogenous in cells; host or cells: RPMI8226; key: “−” represents no degradation activity; “+” represents a degradation rate of 10%-30%; “++” represents a degradation rate of 30%-50%; “+++” represents a degradation rate of 50%-90%; “++++” means the degradation rate is greater than 90%
Details: compound 10 μM, 24 hours
measured parameter: Degradation activity

{"molecule": "Nc1ncnc2c1c(-c1ccc(Oc3ccccc3)cc1)nn2C1CCN(CCOCCOCCOCCOc2cccc3c2C(=O)N(C2CCC(=O)NC2=O)C3=O)CC1 (stereo not shown) [control compound, reference compound]", "result": "−"}
